measuredOn: human GLP-1 receptor (human, UniProt P43220 24-463)
testDetails: cell-based or functional assay
Starred links: 1 amine or outer side, 2 acyl side, 3 side chain; linkers in the order of their positions; H or OH if unused. Non-standard residues stand in square brackets, D forms with d. Groups on a side chain read outwards from the residue. No end group written: not given here. *: point of attachment. C18 diacid = O=C(O)CCCCCCCCCCCCCCCCC(=O)*; γGlu = O=C(O)[C@H](CCC(=O)[*:2])N[*:1]; AEEA = NCCOCCOCC(=O)O; Aib = CC(C)(N)C(=O)O
property: EC50, CreLuc assay, 0.5% hP (nM)
One number for each entry, in nM.

# count of solved cases: 2
YXEGTFTSDYSIXLEXEAQXKFVEWLIKGGPSSGASLRHYYNWLTRQRY (Aib at 2, 13, 16, 20; K28 side chain: C20DA-gGlu-gGlu-gGlu-gGlu-gGlu-gGlu-eLys; C-terminal NH2) [Compound 16] | 1.48
Y[Aib]EGTFTSDYSI[Aib]LEKQAQ[Aib]AFVQWLIK([AEEA-AEEA-γGlu-γGlu-γGlu-γGlu-C18 diacid])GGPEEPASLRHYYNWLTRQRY-NH2 (also: TFA salt) [Compound 57] | 0.14

Read the next record carefully.
Complete the entry with EC50, CreLuc assay, 0.5% hP for YXEGTFTSDYSIXLEKQAQXAFVEWLIKGGPSSGIELRHFLNHLTRQRY (Aib at 2, 13, 20; K28 side chain: C20DA-gGlu-gGlu-gGlu-gGlu-gGlu-gGlu-eLys; C-terminal NH2) [Compound 2] 0.1
